What TGI was measured for each of the following?
system: SN12C renal; experiment: NCI tumour cell line growth inhibition, 48 h

Log: SN12C renal, compound `CN(C)/C=N/S(=O)(=O)c1nn2c(C=O)c(-c3ccc(Cl)cc3)nc2s1` , TGI = 5.94 µM

Item: `CCOc1ccc2c(c1)[n+]([O-])c(-c1nc3ccccc3s1)c(N)[n+]2[O-]` | System: SN12C renal | TGI: > 100 µM

Recorded TGI for CC12CCC([C@H](C(O)C3CCCCC3)C1=O)C2(C)C (stereo partly drawn) on SN12C renal was > 100 µM

TGI of `OC/C=C(\I)CCCOCOCc1ccccc1` , assay on SN12C renal, is > 100 µM

Fill in: SN12C renal TGI for `CC1=CC(=O)N(n2c(Cc3ccccc3)n[nH]c2=O)C1=O` = > 100 µM

Tested system SN12C renal; TGI recorded for Cc1cc(C)n(C2OC(CO)C(O)C(O)C2O)c(=S)c1C#N (stereo not drawn) was > 100 µM

Result for `O=C1N[C@@H](c2c[nH]c3cc(Br)ccc23)C(=O)N[C@H]1c1c[nH]c2cc(Br)ccc12` , tested on SN12C renal, TGI: > 100 µM

Record `O=C(/C(=C/c1cccc([N+](=O)[O-])c1)c1ccccc1)c1ccccc1` / SN12C renal, TGI recorded as 79.8 µM

Reading of TGI for `CNc1nc(N)c(N=O)c(Nc2ccc(Br)cc2)n1` with SN12C renal: > 100 µM

# lookup: `CCC(=O)c1c(C(F)(F)F)n([O-])c2ccc(C)cc2[n+]1=O` on SN12C renal, TGI = 19.8 µM

So the reported TGI for COc1cc(O)c2c(c1)OCC(Cc1ccc(O)cc1)C2=O (stereo not drawn) , on SN12C renal, turned out to be > 100 µM

Item: `FC(F)(F)c1nc(-c2ccccc2)oc1Sc1nnc(Sc2oc(-c3ccccc3)nc2C(F)(F)F)s1` | System: SN12C renal | TGI: > 100 µM

TGI of CCCCCN(CCCCC)CC(O)c1ccc(Cl)c2ccccc12 (stereo not drawn) , assay on SN12C renal, is 24.6 µM

# lookup: `O=C1OC(c2ccco2)=N/C1=C\c1cccc([N+](=O)[O-])c1` on SN12C renal, TGI = > 100 µM

Simply: CC1ON2CCCC2[C@H]1C(=O)N1C2CC3CCC2(CS1(=O)=O)C3(C)C (stereo partly drawn) , SN12C renal, TGI = > 100 µM

Summary: `O=C(O)[C@@H]1CSCN1C(=O)[C@@H]1CCC(=S)N1` , SN12C renal, TGI = > 100 µM

`CSC1=N/C(=C\c2ccccc2)C(=O)N1CN1CCCCC1` tested on SN12C renal gave TGI: > 100 µM

Item `O=C1/C(=C/c2ccc(O)cc2)CSc2ccc(Cl)cc21` ; assay system SN12C renal; TGI reported as 46.9 µM

Item: CN1C(=O)c2ccccc2NC(=O)C12O[C@@H]2c1cccc(O)c1 (stereo partly drawn) | System: SN12C renal | TGI: > 100 µM

With SN12C renal as the test system, `Cc1nc2ccccc2n1C(=O)c1c(F)c(F)c(F)c(F)c1F` showed TGI of 30.6 µM

Bench note, SN12C renal: `C=C1C(=O)O[C@H]2[C@H]1CC/C(COC(=O)c1cc3ccccc3s1)=C\CC[C@@]1(C)O[C@@H]21` , TGI reads 4.61 µM

Bench note, SN12C renal: entry `CC(C)c1ccc(C(c2ccc(OCC(=O)O)cc2)c2ccc(C(C)C)cc(=O)c2O)c(O)c(=O)c1` , its TGI = 24.3 µM

I looked up `C/C(=C1/CCC/C(=C(/C)c2ccccc2)C1=O)c1ccccc1` and its TGI for SN12C renal was > 100 µM

Item `N#C/C(N)=C(\C#N)N=CN` was tested on SN12C renal; the reported TGI is > 100 µM

Value (TGI, SN12C renal) for record COc1cc2c(c(OC)c1)C1(CC(CC#N)C2)SCCS1 (stereo not drawn) = > 100 µM

Bench note, SN12C renal: COc1ccc(C2SCC(=O)N2NC(=O)Nc2c(C)nc3ccccn23)cc1 (stereo not drawn) , TGI reads > 100 µM

Short answer on SN12C renal for C=C(C)C1CCC2(C(=O)O)CCC3(C)C(CCC4C5(C)CCC(OC(=O)NCc6ccccc6)C(C)(C)C5CCC43C)C12 (stereo not drawn) , TGI: > 100 µM

Known value: SN12C renal TGI of the compound `N#Cc1cccc(NC(=O)c2cc(-c3ccc(F)cc3F)ccc2O)c1` equals 8.32 µM

The compound `Clc1ccc(-c2c(C3=NCCCN3)nnn2-c2ccc(Cl)cc2)cc1` , when measured on SN12C renal, yielded TGI of > 100 µM

TGI of Cc1ccc2c(c1)C1(C)OC(C=CC1=O)O2 (stereo not drawn) , assay on SN12C renal, is 0.862 µM

Measured TGI (SN12C renal), entry `CCOP(=O)(CN1CCNCCNCC1)OCC` : > 100 µM

Considering `O=C(O)[C@@H]1CCCCN1Cc1cc2cc3c(cc2c2cc(OCc4ccccc4)ccc12)OCO3` , its TGI with SN12C renal was recorded as 7.8 µM

Reading of TGI for CN1C2CCC1CC(CCNC(c1ccccc1)c1ccccc1)C2 (stereo not drawn) with SN12C renal: > 100 µM

// assay SN12C renal, entry C=C1CC[C@@H]2[C@](C)(COC(C)=O)[C@H](OC(C)=O)CC[C@@]2(C)[C@@H]1CC(Nc1ccc(S(=O)(=O)Nc2ncccn2)cc1)C1=CCOC1=O (stereo partly drawn) , TGI value = 1.96 µM

Case `Cc1ccc2c(c1)CN(C(=O)CCC(=O)OCc1ccccc1)c1ccc(C)cc1CN2C(=O)CCC(=O)OCc1ccccc1` , SN12C renal, TGI recorded as > 100 µM

Field TGI (system: SN12C renal) for entry Nc1ncn(C2CC(O)C(CO)O2)c(=O)n1 (stereo not drawn) = > 375 µM

Record COc1ccc2c3c(coc13)C(CCC(=O)O)CC2 (stereo not drawn) has SN12C renal TGI equal to > 100 µM

I looked up `COc1cc(/C=C2\N=C(c3ccccc3)N(c3nc4c(OC)ccc(OC)c4s3)C2=O)ccc1O` and its TGI for SN12C renal was > 100 µM

TGI value, target or system SN12C renal, for `COc1ccc(-c2cc(=O)c3ccccc3[nH]2)c(OC)c1` : > 100 µM

Observed TGI on SN12C renal, entry `COc1ccc(C2=Nn3c(nnc(Cc4ccc(Cl)cc4)c3=O)SC2)cc1` , equals > 100 µM

// TGI (SN12C renal) for CCOC(=O)C(O)(NC(=O)c1ccc(F)cc1)C(F)(F)F (stereo not drawn) = > 100 µM

So the reported TGI for O=C1NC2OCC(O)C(O)C2O1 (stereo not drawn) , on SN12C renal, turned out to be > 100 µM

The measured TGI that `CC(=O)N1C/C(=C\c2ccc(N(C)C)cc2)C(=O)/C(=C/c2ccc(N(C)C)cc2)C1` showed for SN12C renal is > 100 µM
